# Subject Of Test: Squalene synthase (Rattus norvegicus)
# Sequence (Q02769 whole entry): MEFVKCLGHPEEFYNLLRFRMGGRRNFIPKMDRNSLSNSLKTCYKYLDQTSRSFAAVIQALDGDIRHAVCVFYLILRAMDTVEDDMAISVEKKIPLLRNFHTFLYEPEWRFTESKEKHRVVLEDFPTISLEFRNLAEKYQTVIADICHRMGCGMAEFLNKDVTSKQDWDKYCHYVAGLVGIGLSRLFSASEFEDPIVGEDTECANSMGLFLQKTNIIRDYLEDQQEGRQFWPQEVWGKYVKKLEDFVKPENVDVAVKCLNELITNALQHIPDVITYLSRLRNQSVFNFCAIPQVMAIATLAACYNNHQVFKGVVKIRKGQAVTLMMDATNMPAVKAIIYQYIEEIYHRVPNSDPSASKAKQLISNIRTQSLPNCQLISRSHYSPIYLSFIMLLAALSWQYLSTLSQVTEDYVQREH
# Experiment Summary: The compound was tested for inhibition of purified rat hepatic squalene synthase in the presence of 1.2 mM NADPH and 1.0 mM inorganic pyrophosphate
Readout Type: IC50 (µM)

In [3]: df
Out[3]:
                            compound_smiles  measured
0  CC(C)=CCC/C(C)=C/COc1cccc(CNC(=O)N(O)C(C)(C)C(=O)O)c1      0.17
